biological target: Procathepsin L (Homo sapiens); experiment: Reversible inhibition of human liver cathepsin L peincubated for 30 mins followed by addition of 7 uM of substrate Z-FR-MCA measured after 10 mins by spectrofluorimetric method
Sequence (P07711 whole entry): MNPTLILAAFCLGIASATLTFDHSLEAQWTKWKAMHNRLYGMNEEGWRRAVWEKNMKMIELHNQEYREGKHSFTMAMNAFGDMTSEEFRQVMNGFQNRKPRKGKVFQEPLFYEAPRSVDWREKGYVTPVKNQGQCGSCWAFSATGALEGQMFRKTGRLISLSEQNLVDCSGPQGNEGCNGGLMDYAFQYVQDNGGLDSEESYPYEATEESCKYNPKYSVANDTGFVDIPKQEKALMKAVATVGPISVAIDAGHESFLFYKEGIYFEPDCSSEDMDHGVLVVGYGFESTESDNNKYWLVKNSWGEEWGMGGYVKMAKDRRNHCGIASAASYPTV
property-label: pIC50
Answers are plain numbers, as −log10 of the molar value.

Query: Entry CCCCCCC[C@H]1O[C@@H]1C(OC(=O)c1ccc(I)cc1)C(=O)NC1CCCCC1 (mixture of isomers) : reported pIC50 = ?
Reply: 5.14

====

biological target: Cathepsin K (Homo sapiens) (UniProt P43235); assay: Inhibition of cathepsin K (unknown origin) at 25 uM peincubated for 5 mins followed by Z-FR-MCA addition by spectrofluorimetric method relative to control
Sequence (P43235 whole entry): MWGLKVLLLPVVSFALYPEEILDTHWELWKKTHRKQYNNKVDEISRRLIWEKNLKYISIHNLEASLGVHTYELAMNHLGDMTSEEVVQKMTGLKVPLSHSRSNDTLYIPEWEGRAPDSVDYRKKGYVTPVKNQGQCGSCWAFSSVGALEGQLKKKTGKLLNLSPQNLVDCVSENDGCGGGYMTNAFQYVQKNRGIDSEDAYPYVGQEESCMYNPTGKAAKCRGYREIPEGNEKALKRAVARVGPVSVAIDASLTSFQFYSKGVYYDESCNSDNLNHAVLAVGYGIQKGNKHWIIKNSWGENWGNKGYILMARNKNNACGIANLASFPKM
Decision: inhibition compared against 40%; not below it gives 1, below it gives 0.

The following compounds have reported results that may help.
> print(dat)
                                   compound  group.label
1  CCCCCCC[C@H]1O[C@@H]1C(OC(=O)[C@H]1CCCN1C(=O)OC(C)(C)C)C(=O)NC(C)(C)C (mixture of isomers)            0
2  CCCCCCC[C@H]1O[C@@H]1C(OC(=O)c1ccccc1)C(=O)NC(C)(C)C (mixture of isomers)            1
3  CC(C)(C)NC(=O)C(OC(=O)c1ccccc1)[C@H]1O[C@@H]1c1ccccc1[N+](=O)[O-] (mixture of isomers)            0
4  CCCCCCC[C@H]1O[C@@H]1C(OC(=O)c1ccc(I)cc1)C(=O)NC1CCCCC1 (mixture of isomers)            1

For the next question, use this compound.
Query: Textbook exercise: given the entry CCCC(=O)OC(C(=O)NCc1ccccc1)[C@H]1O[C@@H]1c1ccccc1[N+](=O)[O-] (mixture of isomers) , state whether its inhibition is greater than or equal to 40%.
Reply: 0
